# testMethodNotes: ATG_AP_2_CIS: Attagene CIS-FACTORIAL HepG2 Assay for human Activator Protein 2 (AP-2) (AID 2282932)
# protocolConditions: HepG2 AP-2 cis-reporter, Attagene transcription factor profiling; actives raise or lower the signal
Active and inactive are the calls of the source. How the source made its calls: active means hit-call score of the fitted dose curve at least 0.9, where 1 is the maximum; inactive means score below 0.9.
Outcome codes: y for active, n for inactive

> print(dat)
                                    molecule  class
 1  CC(C)c1ccc2c(c1)CC[C@H]1[C@](C)(CN)CCC[C@]21C      n
 2  O=C(OCC1CCC2OC2C1)C1CCC2OC2C1 (stereo unspecified)      n
 3         CCCCCCCC[N+](C)(CCCCCCCC)CCCCCCCC      n
 4              C=C(C)c1cccc(C(C)(C)N=C=O)c1      n
 5   C[Si](C)O[Si](C)(C)O[Si](C)(C)O[Si](C)C      n
 6  Nc1ncn([C@@H]2O[C@H](CO)[C@@H](O)[C@H]2O)c(=O)n1      n
 7  O=C(Nc1cccc(C(F)(F)F)c1)c1cc(Br)cc(Br)c1O      y
 8                                  OC1CCCC1      n
 9                   CCCCCCCCCCCCCOP(=O)(O)O      n
10  CC1(C)O[C@@H]2C[C@H]3[C@@H]4C[C@H](F)C5=CC(=O)CC[C@]5(C)[C@H]4[C@@H](O)C[C@]3(C)[C@]2(C(=O)CO)O1      n
11                        COC(=O)/C=C\C(=O)O      n
12                                     COC=O      n
13         CCCCOCCOC(=O)COc1nc(Cl)c(Cl)cc1Cl      n
14           OC1OCCOC1O (stereo unspecified)      n
15        CC1=NC(C)OC1C (stereo unspecified)      n
16  CC(CC=O)CCCC(C)(C)O (stereo unspecified)      n
17               C/C=C\C/C=C/CCCCCCCCOC(C)=O      n
18                                 C=C(C)CCO      n
19            CCC(C)C=O (stereo unspecified)      n
20             Cc1ccc2c(c1)C(=O)c1ccccc1C2=O      n
21                           NC(=O)c1ccccc1O      n
22                                     OCCCS      n
23                       Nc1cccc(C(F)(F)F)c1      n
24                                 CNC(=S)NN      n
25               NC(=O)OCC(COC(N)=O)c1ccccc1      n
26                        Cc1cc(C)c(C)c(O)c1      n
27                        CCO[Si](C)(OCC)OCC      n
28                  COC(=O)c1sccc1S(N)(=O)=O      n
29                           NC(=O)N=NC(N)=O      n
30                                 O=C1CCCC1      n
31          CC/C=C\C/C=C\C/C=C\CCCCCCCC(=O)O      n
32                  O=[N+]([O-])c1ccc(CO)cc1      n
33                   S=C(NC1CCCCC1)NC1CCCCC1      n
34                          CCCCCCCOC(=O)CCC      n
35       Cc1cccc(N(C)C(=S)Oc2ccc3ccccc3c2)c1      n
36                                  C=COCCCC      n
37                        O=P(O)(O)Oc1ccccc1      n
38   CC(C)=CC1CC(C)CCO1 (stereo unspecified)      n
39                        CCCC(=O)OCc1ccccc1      n
40           CCCNC(=O)NS(=O)(=O)c1ccc(Cl)cc1      n
41                            CCCCCC/C=C/C=O      n
42                       CCCCCCCCCCCSCC(=O)O      n
43  CCN(CCC#N)c1ccc(N=Nc2c(Cl)cc([N+](=O)[O-])cc2Cl)cc1      n
44                           COCCOCCOCCOCCOC      n
45                        NCCCN1CCN(CCCN)CC1      n
46  N=c1ccn2c(n1)O[C@H]1[C@H](O)[C@@H](CO)O[C@H]12      n
47                          CCCCCCCCCCC=CC#N      n
48  CC1(C)S[C@@H]2[C@H](NC(=O)COc3ccccc3)C(=O)N2[C@H]1C(=O)O      n
49   O=C1CC2CC1C1CCCC21 (stereo unspecified)      n
50                           CC(C)C(=O)C(C)C      n
51                CC=CC(F)(F)C(F)(F)C(F)(F)F      n
52  [Cl][Bi]([Cl])([c]1ccccc1)([c]1ccccc1)[c]1ccccc1      n
53     CC(C)=CCCC(C)C=O (stereo unspecified)      n
54  C=C(C)[C@@H]1CCC2=CCC[C@@H](C)[C@]2(C)C1      n
55                O=C(C(Cl)Cl)N1CCOC12CCCCC2      n
56            Cc1ccc(C(C)c2ccc(C)c(C)c2)cc1C      n
57                    ON(Cc1ccccc1)Cc1ccccc1      n
58                    CC(=O)c1ccc2c(c1)CCCC2      n
59              CCOc1ccc(N)c([N+](=O)[O-])c1      n
60     CC(C)(C)c1ccc(-c2ccc(C(C)(C)C)cc2)cc1      n
61                           CCCCC/C=C\CCC=O      n

###

# testMethodNotes: BSK_SAg_PBMCCytotoxicity: PBMC Cytotoxicity Assessment in the BioMAP Diversity Plus: SAg Assay (AID 2283093);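 further: PBMC viability measured as Alamar Blue reduction fluorescence at 546/580 nm; fitted both ways against DMSO so a hit may be loss or gain of signal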;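 on AC50: PBMC superantigen activated with SEB plus TSST-1 one hour after compound addition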
# protocolConditions: primary human HUVEC with PBMC
Active and inactive are the calls of the source. The calls were made as follows: active = hit-call score of the fitted dose curve at least 0.9, where 1 is the maximum; inactive = score below 0.9.
quantityKind: AC50

> print(dat)
                                    compound  quantitykind       resultvalue
 1  CCOc1nc(F)cc2nc(S(=O)(=O)Nc3c(Cl)cccc3C(=O)OC)nn12          AC50          inactive
 2    CCCCNc1ccc(NCCCC)c2c1C(=O)c1ccccc1C2=O          AC50          inactive
 3                            C=CC=CC=CCCCCC          AC50          inactive
 4              O=C(c1ccc(O)cc1)c1ccc(O)cc1O          AC50          inactive
 5  CCCCC(CC)COC(=O)c1ccccc1O (configuration not stated)          AC50  18.4 µM (active)
 6                   C=CCOc1c(Br)cc(Br)cc1Br          AC50          inactive
 7                    O=c1c2ccccc2oc2ccccc12          AC50          inactive
 8      N#[N+]c1ccc2c(S(=O)(=O)[O-])cccc2c1O          AC50          inactive
 9          C=C[Si](OC(C)=O)(OC(C)=O)OC(C)=O          AC50          inactive
10  COCc1c(C(C)C)nc(C(C)C)c(/C=C/[C@@H](O)C[C@@H](O)CC(=O)O)c1-c1ccc(F)cc1          AC50          inactive
11  O=C(Nc1ccccc1SSc1ccccc1NC(=O)c1ccccc1)c1ccccc1          AC50  2.78 µM (active)
12  CN1C(=O)N(C)C(O)C1O (configuration not stated)          AC50          inactive

This collection of values is drawn from PubChem BioAssay (EPA / NIEHS).
